System: THRa homodimer (NR concentration 90 nM)
Assay remarks: PBM binding z-score (relative to random genomic background probes); higher = stronger binding; sequences stand for … in GC…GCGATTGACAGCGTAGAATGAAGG
Catalogue of PBM binding z-score values

| Input sequence | Study system | PBM binding z-score |
| --- | --- | --- |
| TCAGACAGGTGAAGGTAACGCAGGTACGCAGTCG | THRa homodimer (NR concentration 90 nM) | 0.208 |
| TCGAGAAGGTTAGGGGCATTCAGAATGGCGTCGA | THRa homodimer (NR concentration 90 nM) | 0.127 |
| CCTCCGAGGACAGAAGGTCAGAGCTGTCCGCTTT | THRa homodimer (NR concentration 90 nM) | 1.17 |
| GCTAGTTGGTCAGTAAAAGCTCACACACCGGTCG | THRa homodimer (NR concentration 90 nM) | -0.166 |
| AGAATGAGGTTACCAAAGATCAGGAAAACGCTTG | THRa homodimer (NR concentration 90 nM) | 0.443 |
| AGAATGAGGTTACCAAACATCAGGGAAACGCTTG | THRa homodimer (NR concentration 90 nM) | 0.726 |
| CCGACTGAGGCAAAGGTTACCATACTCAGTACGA | THRa homodimer (NR concentration 90 nM) | 0.023 |
| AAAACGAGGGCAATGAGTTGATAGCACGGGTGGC | THRa homodimer (NR concentration 90 nM) | -0.257 |
| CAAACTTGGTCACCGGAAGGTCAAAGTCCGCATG | THRa homodimer (NR concentration 90 nM) | 1.24 |
| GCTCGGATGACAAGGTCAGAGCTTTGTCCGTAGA | THRa homodimer (NR concentration 90 nM) | 1.09 |
| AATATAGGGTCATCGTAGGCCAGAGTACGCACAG | THRa homodimer (NR concentration 90 nM) | 2.3 |
| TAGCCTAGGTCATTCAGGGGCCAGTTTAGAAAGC | THRa homodimer (NR concentration 90 nM) | 0.971 |

====

Tested on: LXRb homodimer (NR concentration 270 nM)
Assay remarks: PBM binding z-score (relative to random genomic background probes); higher = stronger binding; sequences stand for … in GC…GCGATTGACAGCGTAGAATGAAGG
Catalogue of PBM binding z-score values

| Input sequence | Study system | PBM binding z-score |
| --- | --- | --- |
| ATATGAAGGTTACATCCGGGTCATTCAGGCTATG | LXRb homodimer (NR concentration 270 nM) | 0.71 |
| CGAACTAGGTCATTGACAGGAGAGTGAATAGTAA | LXRb homodimer (NR concentration 270 nM) | -0.158 |
| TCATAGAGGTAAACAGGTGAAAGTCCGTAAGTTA | LXRb homodimer (NR concentration 270 nM) | -0.997 |
| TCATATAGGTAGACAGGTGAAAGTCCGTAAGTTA | LXRb homodimer (NR concentration 270 nM) | -0.226 |
| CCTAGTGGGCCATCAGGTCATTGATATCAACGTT | LXRb homodimer (NR concentration 270 nM) | -0.159 |
| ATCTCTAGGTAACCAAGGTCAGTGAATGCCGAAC | LXRb homodimer (NR concentration 270 nM) | 0.895 |
| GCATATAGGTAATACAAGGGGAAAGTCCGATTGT | LXRb homodimer (NR concentration 270 nM) | -0.118 |
| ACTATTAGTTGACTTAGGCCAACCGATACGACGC | LXRb homodimer (NR concentration 270 nM) | 1.1 |
| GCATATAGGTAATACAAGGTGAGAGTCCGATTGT | LXRb homodimer (NR concentration 270 nM) | -0.459 |
| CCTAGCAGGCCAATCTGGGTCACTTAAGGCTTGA | LXRb homodimer (NR concentration 270 nM) | -0.723 |
| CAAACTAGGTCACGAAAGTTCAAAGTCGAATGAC | LXRb homodimer (NR concentration 270 nM) | 1.48 |
| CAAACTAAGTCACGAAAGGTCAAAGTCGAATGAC | LXRb homodimer (NR concentration 270 nM) | 2.17 |
| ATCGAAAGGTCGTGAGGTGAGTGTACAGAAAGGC | LXRb homodimer (NR concentration 270 nM) | 0.507 |
| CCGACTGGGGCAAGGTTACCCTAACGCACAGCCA | LXRb homodimer (NR concentration 270 nM) | -1.15 |
| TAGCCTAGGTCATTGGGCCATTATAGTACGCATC | LXRb homodimer (NR concentration 270 nM) | 0.197 |
| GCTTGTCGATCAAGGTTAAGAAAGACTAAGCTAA | LXRb homodimer (NR concentration 270 nM) | -0.963 |
| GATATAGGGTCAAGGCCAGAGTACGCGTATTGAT | LXRb homodimer (NR concentration 270 nM) | 0.188 |
| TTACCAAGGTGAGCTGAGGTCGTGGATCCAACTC | LXRb homodimer (NR concentration 270 nM) | -1.47 |
| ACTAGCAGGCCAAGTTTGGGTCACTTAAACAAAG | LXRb homodimer (NR concentration 270 nM) | -0.362 |
| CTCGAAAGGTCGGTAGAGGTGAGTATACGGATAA | LXRb homodimer (NR concentration 270 nM) | -0.315 |
| ATCGAAAGGTCGGCGAGGTGAGTATACACCGTTT | LXRb homodimer (NR concentration 270 nM) | 0.199 |
| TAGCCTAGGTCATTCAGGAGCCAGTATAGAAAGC | LXRb homodimer (NR concentration 270 nM) | 0.687 |
| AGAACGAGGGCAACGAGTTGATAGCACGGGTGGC | LXRb homodimer (NR concentration 270 nM) | -0.674 |
| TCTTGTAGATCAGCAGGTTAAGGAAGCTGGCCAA | LXRb homodimer (NR concentration 270 nM) | -0.678 |
| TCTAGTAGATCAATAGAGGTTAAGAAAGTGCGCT | LXRb homodimer (NR concentration 270 nM) | -0.599 |
| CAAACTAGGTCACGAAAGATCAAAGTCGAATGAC | LXRb homodimer (NR concentration 270 nM) | 0.541 |
